stoichiometry N values, listed per item
# Assay System: the molecule itself
# Assay Remarks: SEC-MALS; S75 10/300 column; 50 mM Tris-HCl pH7.5, 150 mM NaCl, 10 μM ZnCl2, 5 mM β-mercaptoethanol; proteins alone or mixed
// response body must contain only the number

CM2-L1137E (domain or fragment, Drosophila melanogaster, GGS motif left after TEV cleavage, as told for the WT CM2 construct of the same vector; Centrosomin (Cnn), Drosophila, CM2 domain, aa1082-1148, L1137E; also called CM2 (aa1082-1148 L1137E); source: E. coli C41 (DE3), purified; not shown: His-tagged lipoyl domain (Bacillus stearothermophilus dihydrolipoamide acetyltransferase), N-terminal, cleaved) GGSHDCAKVDLENAELRRKLIRTKRAFEDTYEKLRMANKAKAQVEKDIKNQILKTHNVERNVRSNMENEL
2
CM2-I1126E (domain or fragment, Drosophila melanogaster, GGS motif left after TEV cleavage, as told for the WT CM2 construct of the same vector; Centrosomin (Cnn), Drosophila, CM2 domain, aa1082-1148, I1126E; also called CM2 (aa1082-1148 I1126E); source: E. coli C41 (DE3), purified; not shown: His-tagged lipoyl domain (Bacillus stearothermophilus dihydrolipoamide acetyltransferase), N-terminal, cleaved) GGSHDCAKVDLENAELRRKLIRTKRAFEDTYEKLRMANKAKAQVEKDEKNQILKTHNVLRNVRSNMENEL
2

Item under review: Cnn LZ WT (GPM-D490-K544) (domain or fragment, Drosophila melanogaster, Centrosomin (Cnn), Drosophila, LZ domain, aa490-544; Homo-tetramer alone in solution; a parallel homo-dimer in the 2:2 complex with CM2; also called LZ domain; leucine zipper; source: E. coli B834 (DE3), purified (Ni-NTA, SEC; tag cleaved with GST-3C protease, reverse Ni-NTA, SEC); not shown: His6, N-terminal, cleaved; MBP, N-terminal, cleaved) GPMDQQNSAVIGQLRLELQQARTEVETADKWRLECVDVCSVLTNRLEELAGFLNSLLK . Reported stoichiometry N?
4

# get_value(readout='stoichiometry N', item= Cnn CM2 WT (GGS-H1082-L1148) (domain or fragment, Drosophila melanogaster, GGS motif left at the N terminus after TEV cleavage; Centrosomin (Cnn), Drosophila, CM2 domain, aa1082-1148; The dimer holds a Zn2+ ion coordinated by H1082 and C1084; also called Cnn-motif 2 domain; Cnn_(1082-1148); source: E. coli C41 (DE3), purified (Ni-NTA, TEV cleavage, SEC); not shown: His-tagged lipoyl domain (Bacillus stearothermophilus dihydrolipoamide acetyltransferase), N-terminal, …) GGSHDCAKVDLENAELRRKLIRTKRAFEDTYEKLRMANKAKAQVEKDIKNQILKTHNVLRNVRSNMENEL )
2

# input protein: CM2-T1133E (domain or fragment, Drosophila melanogaster, GGS motif left after TEV cleavage, as told for the WT CM2 construct of the same vector; Centrosomin (Cnn), Drosophila, CM2 domain, aa1082-1148, T1133E; also called CM2 (aa1082-1148 T1133E); source: E. coli C41 (DE3), purified; not shown: His-tagged lipoyl domain (Bacillus stearothermophilus dihydrolipoamide acetyltransferase), N-terminal, cleaved) GGSHDCAKVDLENAELRRKLIRTKRAFEDTYEKLRMANKAKAQVEKDIKNQILKEHNVLRNVRSNMENEL ; wanted: its stoichiometry N
2
